Target: DNA topoisomerase 2-alpha (Homo sapiens, UniProt P11388)
Sequence (P11388 whole entry): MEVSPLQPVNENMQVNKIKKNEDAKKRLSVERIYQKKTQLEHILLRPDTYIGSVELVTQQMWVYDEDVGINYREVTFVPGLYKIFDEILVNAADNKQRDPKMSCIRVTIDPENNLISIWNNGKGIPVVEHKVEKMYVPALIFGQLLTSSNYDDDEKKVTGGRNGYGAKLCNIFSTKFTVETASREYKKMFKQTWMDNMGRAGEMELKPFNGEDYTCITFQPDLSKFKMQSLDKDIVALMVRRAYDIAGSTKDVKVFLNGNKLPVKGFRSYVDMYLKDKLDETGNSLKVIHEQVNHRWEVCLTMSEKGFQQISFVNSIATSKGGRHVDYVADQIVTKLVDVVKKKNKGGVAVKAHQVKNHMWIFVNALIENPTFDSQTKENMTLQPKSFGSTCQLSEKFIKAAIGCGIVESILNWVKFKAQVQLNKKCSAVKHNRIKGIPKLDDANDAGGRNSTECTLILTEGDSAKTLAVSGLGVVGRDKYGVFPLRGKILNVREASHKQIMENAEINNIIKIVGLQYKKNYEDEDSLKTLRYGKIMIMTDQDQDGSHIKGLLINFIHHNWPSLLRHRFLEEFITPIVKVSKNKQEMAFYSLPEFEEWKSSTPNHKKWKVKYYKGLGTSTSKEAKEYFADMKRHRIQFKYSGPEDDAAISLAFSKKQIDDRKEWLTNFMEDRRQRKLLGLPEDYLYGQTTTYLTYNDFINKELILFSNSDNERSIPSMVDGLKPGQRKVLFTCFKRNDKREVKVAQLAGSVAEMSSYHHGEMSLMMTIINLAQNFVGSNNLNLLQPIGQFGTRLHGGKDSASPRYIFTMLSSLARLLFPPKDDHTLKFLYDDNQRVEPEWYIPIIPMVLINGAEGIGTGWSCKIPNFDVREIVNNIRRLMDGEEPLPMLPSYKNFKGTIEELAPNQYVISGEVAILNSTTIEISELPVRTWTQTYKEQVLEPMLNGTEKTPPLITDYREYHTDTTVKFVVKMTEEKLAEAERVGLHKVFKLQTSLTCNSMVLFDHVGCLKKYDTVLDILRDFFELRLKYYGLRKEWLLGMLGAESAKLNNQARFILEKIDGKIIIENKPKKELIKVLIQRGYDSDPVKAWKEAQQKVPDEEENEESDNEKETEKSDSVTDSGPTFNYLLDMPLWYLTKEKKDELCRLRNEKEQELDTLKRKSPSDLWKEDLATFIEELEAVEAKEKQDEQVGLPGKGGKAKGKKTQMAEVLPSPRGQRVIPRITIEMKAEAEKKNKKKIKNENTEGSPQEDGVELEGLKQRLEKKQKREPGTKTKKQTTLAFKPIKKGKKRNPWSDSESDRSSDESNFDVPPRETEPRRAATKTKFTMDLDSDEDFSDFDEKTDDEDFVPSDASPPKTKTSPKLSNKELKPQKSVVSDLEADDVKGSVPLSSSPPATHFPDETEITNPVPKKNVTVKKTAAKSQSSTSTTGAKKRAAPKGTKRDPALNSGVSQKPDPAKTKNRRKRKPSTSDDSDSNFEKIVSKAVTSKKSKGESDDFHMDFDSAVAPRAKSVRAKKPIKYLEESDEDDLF
Test: Inhibition of human topoisomerase 2-alpha using pBR322 DNA as substrate incubated for 30 mins in presence of 0.5 to 5 mM ATP (reference value: 2.9 microM)
pIC50: −log10 of the molar value.
reported_endpoint: pIC50

> print(dat)
                               smiles.entry                           subject.of.test  reported.endpoint  measured.value
1  O=C(/C=C/c1ccccc1)Nc1ccc(-c2ccc3cc(O)ccc3c2)cc1  DNA topoisomerase 2-alpha (Homo sapiens, UniProt P11388)              pIC50            5.07
